assayInfo: melting temperature; melt of duplexes
conditionInfo: sodium 0.0675 M; strand 1 µM
Below is a list of entries, each paired with its recorded Tm value.
The reply should contain only the number, in °C.

[[record]]
substance = "CGACGTGCAAGATGTGCTG+CAGCACATGCGGCACGTCG ((((((((...((((((((+))))))))...))))))))"
quantity = "Tm"
measurement = 50.2

[[record]]
substance = "CGACGTGCTCTATGTGCTG+CAGCACATTTAGCACGTCG (((((((((..((((((((+))))))))..)))))))))"
quantity = "Tm"
measurement = 51

[[record]]
substance = "CGACGTGCTAAATGTGCTG+CAGCACATATGGCACGTCG ((((((((.(.((((((((+)))))))).).))))))))"
quantity = "Tm"
measurement = 52

[[record]]
substance = "CGACGTGCGTAATGTGCTG+CAGCACATAAAGCACGTCG ((((((((.(.((((((((+)))))))).).))))))))"
quantity = "Tm"
measurement = 55

[[record]]
substance = "CGACGTGCCGCATGTGCTG+CAGCACATGACGCACGTCG ((((((((..(((((((((+)))))))))..))))))))"
quantity = "Tm"
measurement = 51.2

[[record]]
substance = "CGACGTGCAAAATGTGCTG+CAGCACATGAGGCACGTCG ((((((((...((((((((+))))))))...))))))))"
quantity = "Tm"
measurement = 52.5

[[record]]
substance = "CGACGTGCGCGATGTGCTG+CAGCACATTATGCACGTCG ((((((((...((((((((+))))))))...))))))))"
quantity = "Tm"
measurement = 50

[[record]]
substance = "CGACGTGCCAAATGTGCTG+CAGCACATTCTGCACGTCG ((((((((..(((((((((+)))))))))..))))))))"
quantity = "Tm"
measurement = 51.5


# Tm (substance: CGACGTGCCGAATGTGCTG+CAGCACATGCAGCACGTCG ((((((((.(.((((((((+)))))))).).)))))))) ) is 52.6

// Tm lookup, substance = CGACGTGCTGAATGTGCTG+CAGCACATAATGCACGTCG ((((((((...((((((((+))))))))...)))))))) , result: 51

Per the records, this substance ( CGACGTGCTTGATGTGCTG+CAGCACATCCTGCACGTCG ((((((((..(((((((((+)))))))))..)))))))) ) has Tm equal to 54.5

Tm for CGACGTGCCGGATGTGCTG+CAGCACATCCAGCACGTCG ((((((((.((((((((((+)))))))))).)))))))) is 59

Form field Tm, entry CGACGTGCAAAATGTGCTG+CAGCACATAGAGCACGTCG ((((((((...((((((((+))))))))...)))))))) : 48.9

Tm recorded for this substance, CGACGTGCGGCATGTGCTG+CAGCACATGCAGCACGTCG ((((((((.((((((((((+)))))))))).)))))))) , is 63.1

Data point: CGACGTGCTGCATGTGCTG+CAGCACATGAGGCACGTCG ((((((((..(((((((((+)))))))))..)))))))) ; Tm = 56.8

###

assayInfo: melting temperature; melt of duplexes
conditionInfo: sodium 0.0675 M; strand 1 µM
Listed below: Tm values for each entry.
Answer format: numeric, °C implied, no suffix.

[[record]]
substance = "CGACGTGCATTATGTGCTG+CAGCACATGTGGCACGTCG ((((((((...((((((((+))))))))...))))))))"
unittag = "°C"
measurement = 49.2


The substance listed as CGACGTGCAAAATGTGCTG+CAGCACATATGGCACGTCG ((((((((.(.((((((((+)))))))).).)))))))) shows Tm equal to 50.3

substance CGACGTGCCTTATGTGCTG+CAGCACATGAGGCACGTCG ((((((((((.((((((((+)))))))).)))))))))) , Tm observed: 59.4

Summary for this substance, CGACGTGCTCCATGTGCTG+CAGCACATACGGCACGTCG ((((((((...((((((((+))))))))...)))))))) : Tm is 47

Value of Tm reported for the substance CGACGTGCTCGATGTGCTG+CAGCACATTCAGCACGTCG (((((((((..((((((((+))))))))..))))))))) is 51.9

# Tm (substance: CGACGTGCAACATGTGCTG+CAGCACATACAGCACGTCG ((((((((...((((((((+))))))))...)))))))) ) is 47.9

Memo: CGACGTGCAGTATGTGCTG+CAGCACATAAGGCACGTCG ((((((((..(((((((((+)))))))))..)))))))) , reported Tm: 52.1

Record CGACGTGCGCAATGTGCTG+CAGCACATCTTGCACGTCG ((((((((...((((((((+))))))))...)))))))) , field Tm: 48.7

In plain terms, CGACGTGCAATATGTGCTG+CAGCACATCTAGCACGTCG ((((((((.(.((((((((+)))))))).).)))))))) has a documented Tm of 49.2

###

assayInfo: melting temperature; melt of duplexes
conditionInfo: sodium 0.0675 M; strand 1 µM
# note: boundary value 50 °C maps to criterion not met; Tm below it maps to criterion met

Use the examples below as a reference point.
[[record]]
substance = "CGACGTGCAGCATGTGCTG+CAGCACATTGTGCACGTCG (((((((((..((((((((+))))))))..)))))))))"
classlabel = "criterion met"

[[record]]
substance = "CGACGTGCCTCATGTGCTG+CAGCACATGAAGCACGTCG ((((((((.((((((((((+)))))))))).))))))))"
classlabel = "criterion not met"

[[record]]
substance = "CGACGTGCACAATGTGCTG+CAGCACATATTGCACGTCG (((((((((..((((((((+))))))))..)))))))))"
classlabel = "criterion met"

[[record]]
substance = "CGACGTGCCTGATGTGCTG+CAGCACATACTGCACGTCG ((((((((...((((((((+))))))))...))))))))"
classlabel = "criterion met"

[[record]]
substance = "CGACGTGCGTAATGTGCTG+CAGCACATACCGCACGTCG (((((((((..((((((((+))))))))..)))))))))"
classlabel = "criterion not met"


Then there is this substance:
Req: Say whether its Tm is strictly beneath 50 °C. Entry: CGACGTGCTACATGTGCTG+CAGCACATGGCGCACGTCG ((((((((..(((((((((+)))))))))..))))))))
Resp: criterion not met

###

assayInfo: melting temperature; melt of duplexes
conditionInfo: sodium 0.0675 M; strand 1 µM
Here, each record is paired with measured Tm data.
Field format: number, assumed °C, no unit text.

[[record]]
substance = "CGACGTGCAGCATGTGCTG+CAGCACATGACGCACGTCG ((((((((..(((((((((+)))))))))..))))))))"
measurement = 52

[[record]]
substance = "CGACGTGCCCAATGTGCTG+CAGCACATGTAGCACGTCG ((((((((...((((((((+))))))))...))))))))"
measurement = 50.6

[[record]]
substance = "CGACGTGCAGCATGTGCTG+CAGCACATTCTGCACGTCG ((((((((((.((((((((+)))))))).))))))))))"
measurement = 55

[[record]]
substance = "CGACGTGCCGAATGTGCTG+CAGCACATCGCGCACGTCG ((((((((...((((((((+))))))))...))))))))"
measurement = 54.7

[[record]]
substance = "CGACGTGCCCTATGTGCTG+CAGCACATCCGGCACGTCG (((((((((..((((((((+))))))))..)))))))))"
measurement = 52.2

[[record]]
substance = "CGACGTGCCTGATGTGCTG+CAGCACATATAGCACGTCG ((((((((...((((((((+))))))))...))))))))"
measurement = 49.8

[[record]]
substance = "CGACGTGCCGTATGTGCTG+CAGCACATTACGCACGTCG ((((((((...((((((((+))))))))...))))))))"
measurement = 50.9

[[record]]
substance = "CGACGTGCCCCATGTGCTG+CAGCACATTCGGCACGTCG (((((((((..((((((((+))))))))..)))))))))"
measurement = 51.5


From here, focus on the item given below.
The reported Tm of the substance CGACGTGCCTAATGTGCTG+CAGCACATGCTGCACGTCG ((((((((...((((((((+))))))))...)))))))) was 46.9
